The reported measurements were obtained from the nanobody polyreactivity screen of Harvey et al. (2022).

Assay: yeast display, Sf9 membrane polyspecificity reagent, FACS + sequencing; frameworks hold sequencing errors
measure: polyreactivity (PSR sort gate)

Answered examples (4):
sequence string: QVQLVESGGGLVQAGGSLRLSCAASGRTFNSYAMGWYRQAPGKERELVAAISWNTGSTYYADSVKGRFTISRDNAKNTVYLQMNSLKPEDTAVYYCAAEGELYTAFGTLSFDYWGHGTQVTVSS
polyreactivity (PSR sort gate): high polyreactivity
//
sequence string: QVQLVESGGGLVQAGGSLRLSCAASGITFPDYAMGWYRQAPGKERELVATISSSGGNTYYADSVKGRFTISRDNAKNTVYLQMNSLKPEETAVYYCATVSYYCGYDYWGQGTQVTVSS
polyreactivity (PSR sort gate): low polyreactivity
//
sequence string: QVQLVESGGGLVQAGGSLRLSCAAYSYVMGWYRQAPGKERELVAAISQSGGSTYYADSVKGRFTISRDNAKNTVYLQMNSLKPEDTADYYCAARREPYQYNQYYSWGQGTQVTVSS
polyreactivity (PSR sort gate): high polyreactivity
//
sequence string: QVQLVESGGGLVQAGGSLRLSCAASGSIFGRYGAMGWYRQAPGKERELVAAIRTSGVSTYYADSVKGRFTISRDNAKNTVYLQMNSLKPEDTAVYYCAKGYNSYNLGKYGYWGQGTQVTVSS
polyreactivity (PSR sort gate): low polyreactivity

# next sequence below
[Q] # input sequence: QVQLVESGGGLVQAGGSLRLSCDASGSIFDPYAMGWYRQAPGKERELVAGISFSGGRTYYADSVKGRFTISRDNAKNTVYLQMNSLKPEDTAVYYCKKLLTQGAYPYYYWGQGTQVTVSS ; wanted: its polyreactivity (PSR sort gate)
[A] high polyreactivity
